Test system: KM12
method: NCI tumour cell line growth inhibition, 48 h
The source made the active and inactive calls. No stated cut-off is given here; in the data, active = GI50 up to about 1.1 µM and inactive = higher.
Record form. Attribute: GI50. Fill in for each entry.

The compound listed as C=C(CN(C)C)C(=O)c1ccccc1OC has a reported GI50 of 25.3 µM (inactive)

Record Cc1c(C(=O)/C=C/c2ccc3c(c2)OCO3)[n+]([O-])c2ccccc2[n+]1[O-] , field GI50: 31.9 µM (inactive)

Entry under test: OCC(O)C(OC1OC(CO)C(O)C(O)C1O)c1nn(-c2ccc(Cl)cc2)c2nc3cc(Cl)ccc3nc12 (stereo not given) . Its GI50 was > 100 µM (inactive)

For record COc1cc(/C=C(\C)c2ccc3c(c2)OCO3)cc(OC)c1OC the listed GI50 is 44.5 µM (inactive)

So for NC12Oc3cc(O)cc(O)c3C1(c1ccc(Cl)cc1)c1c(O)cc(O)cc1O2 (stereo not given) , the logged GI50 turned out to be > 100 µM (inactive)

In plain terms, CCOC(=O)Cn1nnc2cc(Nc3c(C)[n+]([O-])c4cc(F)c(OCC)cc4[n+]3[O-])ccc21 has a documented GI50 of > 100 µM (inactive)

Please fill in: GI50 reported for COc1ccc2ccccc2c1/C=C/C(=O)c1ccccc1 = 2.51 µM (inactive)

The compound listed as CCCN1CN(C(C(=O)N[C@@H]2C(=O)N3C(C(=O)O)=C(C)CSC23)c2ccccc2)CSC1=S (stereo not given in full) shows GI50 equal to > 100 µM (inactive)

Consider CN(C)Cc1cc(C(=O)/C=C/c2ccc(Cl)cc2Cl)cc(CN(C)C)c1O . Its measured GI50 is 1.47 µM (inactive)

Looking up CC(=O)c1ccc(NCN2C(=O)c3ccccc3C2=O)cc1 , I see its GI50 listed as > 100 µM (inactive)
